Listed next: entries and their corresponding self-cleavage.
B1: HDV Ribozyme (parent)
chain: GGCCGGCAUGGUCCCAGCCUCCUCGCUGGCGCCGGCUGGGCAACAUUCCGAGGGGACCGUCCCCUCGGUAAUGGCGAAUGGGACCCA

# Variants of: B1
# assay protocol: self-cleavage, relative activity (ratio to wild type); higher = more cleavage; co-transcriptional
# answer = number (no unit)

// query Kindly indicate its recorded self-cleavage. Item: C22A A42C
// result 0

// query # return recorded self-cleavage for entry G53U G80A
// result 0.419

// query For the variant G67A G76A , give its reported self-cleavage.
// result 0.975

// query Tell me its self-cleavage given C41U G76U as the entry.
// result 0.897

// query Entry C4A C33U needs its self-cleavage filled in; supply it.
// result 0.104

// query In one line, give reported self-cleavage of the entry G1A C36U .
// result 0.244

// query Give the reported self-cleavage for this variant. C26A C75G
// result 0

// query Answer with the recorded self-cleavage for the variant listed here: A8G U37G
// result 0

// query Give self-cleavage for the following variant: C30G A42C
// result 0.151

// query Please list self-cleavage recorded for the variant G6U C36A
// result 0.133
